measurement.target: CYP1A2 (Homo sapiens)
Sequence (P05177 whole entry): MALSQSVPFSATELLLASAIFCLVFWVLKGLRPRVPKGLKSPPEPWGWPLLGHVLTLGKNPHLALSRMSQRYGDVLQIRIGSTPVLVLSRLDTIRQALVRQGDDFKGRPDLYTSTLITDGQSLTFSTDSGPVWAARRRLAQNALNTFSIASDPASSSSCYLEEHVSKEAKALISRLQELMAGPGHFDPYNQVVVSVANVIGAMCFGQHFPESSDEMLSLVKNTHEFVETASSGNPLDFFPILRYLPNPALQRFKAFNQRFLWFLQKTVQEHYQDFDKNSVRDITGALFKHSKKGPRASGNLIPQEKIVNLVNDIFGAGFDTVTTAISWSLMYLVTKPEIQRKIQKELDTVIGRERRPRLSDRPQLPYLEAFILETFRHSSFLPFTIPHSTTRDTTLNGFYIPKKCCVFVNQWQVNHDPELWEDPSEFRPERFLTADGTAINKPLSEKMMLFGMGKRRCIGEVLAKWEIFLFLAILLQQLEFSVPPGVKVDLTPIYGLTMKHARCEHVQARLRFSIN
experiment.notes: Clinical cocktail DDI study with fluoxetine, caffeine probe
Assay type: in vivo
condition.context: both, human, plasma, oral
measured.parameter: AUC(0-inf) (µM·h)
Answer in µM·h, number only, no unit symbol.

// sample "Cn1c(=O)c2c(ncn2C)n(C)c1=O" , its AUC(0-inf) was 43

###

measurement.target: UniProtKB P08684
Assay type: in vivo
condition.context: both, human, plasma, oral, 2 mg, probe midazolam
measured.parameter: half-life (h)
The reply should be a number in h, with the unit left off.

Record "Cc1ncc2n1-c1ccc(Cl)cc1C(c1ccccc1F)=NC2" , field half-life: 2.2

###

measurement.target: UniProtKB P05177
experiment.notes: Clinical cocktail DDI study with fluoxetine, caffeine probe
Format: in vivo
condition.context: both, human, plasma, po, 100 mg
measured.parameter: AUC(0-inf) (µM·h)
Response body: numeric value in µM·h, unit text excluded.

Summary for this compound, "Cn1c(=O)c2c(ncn2C)n(C)c1=O" : AUC(0-inf) is 43

###

measurement.target: CYP2D6 (Homo sapiens, UniProt P10635)
Sequence (P10635 whole entry): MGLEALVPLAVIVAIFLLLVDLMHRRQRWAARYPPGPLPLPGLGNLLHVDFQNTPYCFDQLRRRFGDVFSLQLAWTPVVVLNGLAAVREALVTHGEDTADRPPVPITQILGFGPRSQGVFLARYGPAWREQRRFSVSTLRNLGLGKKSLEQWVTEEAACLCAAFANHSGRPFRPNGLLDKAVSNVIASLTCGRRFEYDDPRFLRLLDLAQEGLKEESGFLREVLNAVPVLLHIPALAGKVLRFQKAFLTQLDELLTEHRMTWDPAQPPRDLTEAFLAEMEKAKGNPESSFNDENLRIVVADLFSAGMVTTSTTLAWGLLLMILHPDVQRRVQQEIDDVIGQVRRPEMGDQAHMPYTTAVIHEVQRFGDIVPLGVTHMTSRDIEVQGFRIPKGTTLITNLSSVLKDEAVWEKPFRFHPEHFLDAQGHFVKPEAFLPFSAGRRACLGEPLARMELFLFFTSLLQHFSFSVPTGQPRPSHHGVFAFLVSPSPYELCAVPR
experiment.notes: Clinical cocktail DDI study with fluoxetine, dextromethorphan probe
Type: in vivo
condition.context: both, human, plasma, oral, t1/2, Control
measured.parameter: half-life
Field: value (include unit after the number)

The measured half-life associated with COc1ccc2c(c1)[C@]13CCCC[C@@H]1[C@H](C2)N(C)CC3 [Dextromethorphan] reads 5 h

###

measurement.target: CYP3A4 (Homo sapiens, UniProt P08684)
Sequence (P08684 whole entry): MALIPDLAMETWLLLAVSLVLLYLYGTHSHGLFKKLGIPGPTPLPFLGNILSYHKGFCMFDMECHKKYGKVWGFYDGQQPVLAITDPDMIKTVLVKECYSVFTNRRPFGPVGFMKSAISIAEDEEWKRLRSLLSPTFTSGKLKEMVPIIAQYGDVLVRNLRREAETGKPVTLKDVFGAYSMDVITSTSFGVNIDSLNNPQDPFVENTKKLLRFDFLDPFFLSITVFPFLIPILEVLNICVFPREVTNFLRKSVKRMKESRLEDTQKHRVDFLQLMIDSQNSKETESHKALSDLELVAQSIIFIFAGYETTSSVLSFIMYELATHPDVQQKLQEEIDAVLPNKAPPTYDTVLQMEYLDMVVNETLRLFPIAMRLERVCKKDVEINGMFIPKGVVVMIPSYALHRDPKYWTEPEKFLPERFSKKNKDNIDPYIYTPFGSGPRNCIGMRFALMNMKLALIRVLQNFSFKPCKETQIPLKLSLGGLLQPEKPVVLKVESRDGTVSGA
Assay type: in vivo
condition.context: both, human, plasma, oral, probe midazolam
measured.parameter: half-life (h)
State just the number; it will be interpreted in h.

get_value(item= "Cc1ncc2n1-c1ccc(Cl)cc1C(c1ccccc1F)=NC2" , readout=half-life) returns 2.3

###

measurement.target: CYP3A4 (Homo sapiens, UniProt P08684)
Format: in vivo
condition.context: both, human, urine and plasma
measured.parameter: CL renal (mL/min)
Response body: numeric value in mL/min, unit text excluded.

The measured CL renal associated with "C[C@]12CCC(=O)C=C1CC[C@@H]1[C@@H]2[C@@H](O)C[C@@]2(C)[C@H]1CC[C@]2(O)C(=O)CO" reads 0.6

###

measurement.target: CYP2D6 (Homo sapiens, UniProt P10635)
experiment.notes: Clinical cocktail DDI study with fluoxetine, dextromethorphan probe
Type: in vivo
condition.context: both, human, plasma, oral, probe dextromethorphan
measured.parameter: AUC(0-inf) (µM·h)
Answer in µM·h, number only, no unit symbol.

Just so you know, measured AUC(0-inf) for CN1CC[C@@]23CCCC[C@@H]2[C@@H]1Cc1ccc(O)cc13 [Dextrorphan] came out at 0.028

###

measurement.target: CYP2D6 (Homo sapiens, UniProt P10635)
measured.parameter: Ki (nM)
The figure you give is taken to be in nM; do not add the unit.

Hey, CYP2D6 (Homo sapiens, UniProt P10635) data for NCC[C@H](Oc1ccc(C(F)(F)F)cc1)c1ccccc1 [(S)-norfluoxetine] : Ki came out at 35

###

measurement.target: CYP3A4 (Homo sapiens, UniProt P08684)
Format: in vivo
condition.context: both, human, plasma, oral, observed Cmax, day 12 of fluoxetine
measured.parameter: Cmax (nM)
Write the value in nM as a bare number.

GET /values?item= "Cc1ncc2n1-c1ccc(Cl)cc1C(c1ccccc1F)=NC2" &system= CYP3A4 (Homo sapiens, UniProt P08684) returns Cmax: 14.5
